assay_system: T1, recombinant human CTLA4-his protein (Acro biosystems, Cat#CT4-H5229) (human, UniProt P16410 37-162)
T1 construct: bought recombinant protein; not shown: his tag
T1 sequence (looked up): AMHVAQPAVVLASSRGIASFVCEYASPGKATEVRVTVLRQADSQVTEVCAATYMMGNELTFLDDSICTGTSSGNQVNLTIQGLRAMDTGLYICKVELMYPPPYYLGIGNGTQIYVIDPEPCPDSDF
method_summary: BLI, Octet RED96; antibody on AHC sensor, CTLA4-his as analyte
Entries and their koff values follow.

{"binder": "chimeric C1D1 anti-CTLA4 antibody (antibody, human IgG4 S228P, kappa, V domains shown, mouse variable domains on human IgG4/kappa, made in 293F cells) VH: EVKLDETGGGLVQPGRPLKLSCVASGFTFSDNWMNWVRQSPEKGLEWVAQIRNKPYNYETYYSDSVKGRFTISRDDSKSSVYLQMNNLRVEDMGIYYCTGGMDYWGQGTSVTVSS VL: DIQMTQSPASLSASVGETVTITCGASEIIYGALNWYQQKQGKSPQLLIYGATNLADGMSSRFSGSGSGRQYSLKISSLHPDDAATYYCQKILSPPPWTFGGGTKLEIKR", "koff [s⁻¹]": 0.000296}
{"binder": "chimeric C1G4 anti-CTLA4 antibody (antibody, human IgG4 S228P, kappa, V domains shown, mouse variable domains on human IgG4/kappa, made in 293F cells) VH: EVKLDETGGGLVQPGRPIKLSCVASGFTFSDNWMNWVRQSPEKGLEWVAQIRNKPYNYETYYSDSVKGRFTISRDDSKSSVYLQMNNLRTKDMGIYYCTGGFTYWGQGTLVTVSA VL: DIQMTQSPPSLSASVGETVTITCGASENIYGGLNWYQRKQGKSPQLLIYGATNLADGMSSRFSGSGSGRQYSLKISRLHPDDVATYYCQNVLNTPYTFGGGTKLEIKR", "koff [s⁻¹]": 0.000679}
{"binder": "chimeric D1D5 anti-CTLA4 antibody (antibody, human IgG4 S228P, kappa, V domains shown, mouse variable domains on human IgG4/kappa, made in 293F cells) VH: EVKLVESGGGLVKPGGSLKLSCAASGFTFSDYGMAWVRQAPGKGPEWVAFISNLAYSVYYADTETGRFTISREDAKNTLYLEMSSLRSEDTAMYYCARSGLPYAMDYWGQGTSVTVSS VL: DIQMTQTTSSLSASLGDRVTISCRASQDISNYLNWYQQKPDGTVKLLIYYISRLHSGVPSRFSGSGSGTDFSLTISNLEQEDIATYFCQQGRMLPWTFGGGTRLEIKR", "koff [s⁻¹]": 0.00166}
